target desc: human Beta-secretase (BACE), BACE1 (gene 23621)
test protocol: NVS_ENZ_hBACE: NovaScreen (NVS) Enzymatic Assay for human Beta-secretase (BACE) (AID 2283140);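 note: hits are inhibitors that reduce fluorescent substrate signal versus DMSO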
Records with an inconclusive call do not appear. Activity calls are given as the source filed them. Rule for the calls: active = hit-call score of the fitted dose curve at least 0.9, where 1 is the maximum; inconclusive = response in the unintended direction; inactive = score below 0.9.
Possible outcomes: active, inactive

molecule	label value
CC(COc1ccc(Oc2ccccc2)cc1)Oc1ccccn1 (centres undefined)	active
C#CCC1=C(C)C(OC(=O)C2C(C=C(C)C)C2(C)C)CC1=O (centres undefined)	inactive
CC[C@H](C)[C@H]1O[C@]2(C=C[C@@H]1C)C[C@@H]1C[C@@H](C/C=C(\C)[C@@H](O[C@H]3C[C@H](OC)[C@@H](O[C@H]4C[C@H](OC)[C@@H](NC)[C@H](C)O4)[C@H](C)O3)[C@@H](C)/C=C/C=C3\CO[C@@H]4[C@H](O)C(C)=C[C@@H](C(=O)O1)[C@]34O)O2	active
CC(C)[C@H](C(=O)O[C@H](C#N)c1cccc(Oc2ccccc2)c1)c1ccc(Cl)cc1	active
CCCCOC(=O)c1ccccc1C(=O)O	inactive
CC(C)=CC1C(C(=O)OCN2C(=O)C3=C(CCCC3)C2=O)C1(C)C (centres undefined)	active
CON=C(C(=O)OC)c1ccccc1CON=C(C)c1cccc(C(F)(F)F)c1	inactive
CCCCSP(=O)(SCCCC)SCCCC	inactive
S=C1NCCN1	inactive

====

test protocol: CCTE_Mundy_HCI_Cortical_Synap_Neur_Matur_NeuronCount: CCTE's Synaptogenesis and Neurite Maturation Assay in rat cortical cells for Neuron Count, Mundy Lab (AID 2284242)
Inconclusive results are not listed. Active and inactive are the calls of the source. Rule for the calls: active = hit-call score of the fitted dose curve at least 0.9, where 1 is the maximum; inconclusive = response in the unintended direction; inactive = score below 0.9.
Possible outcomes: True for active, False for inactive

In [3]: df
Out[3]:
                                    compound  label_value
 0  CCCSP(=O)(OCC)Oc1ccc(Br)cc1Cl (configuration not stated)        False
 1         CC(C)N(C(=O)SCC(Cl)=C(Cl)Cl)C(C)C         True
 2                       CCOP(=S)(OCC)SCCSCC        False
 3   CCOP(=S)(OCC)Oc1ccc2c(C)c(Cl)c(=O)oc2c1        False
 4          CCOP(=S)(OCC)Oc1cc(C)nc(C(C)C)n1        False
 5                                 S=C1NCCN1        False
 6  O=[N+]([O-])c1cc(C(F)(F)F)c(Cl)c([N+](=O)[O-])c1Nc1ncc(C(F)(F)F)cc1Cl         True
 7  COP(=O)(NC(C)=O)SC (configuration not stated)        False
 8  COP(=O)(OC)C(O)C(Cl)(Cl)Cl (configuration not stated)         True
 9  CCOP(=O)(NC(C)C)Oc1ccc(SC)c(C)c1 (configuration not stated)        False
10  CN(C)[C@@H]1C(=O)C(C(N)=O)=C(O)[C@@]2(O)C(=O)C3=C(O)c4c(O)cccc4[C@@](C)(O)[C@H]3[C@H](O)[C@@H]12         True
11      CCOP(=S)(OCC)Oc1ccc([N+](=O)[O-])cc1        False

====

test protocol: Tanguay_ZF_120hpf_SWIM_legacy: (Legacy) Oregon State University Tanguay Lab 120 Hour Post-fertilization zebrafish Assay for Swim Bladder Malformation (AID 2283654);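 note: swim bladder malformation in each larva scored yes or no under brightfield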
Records with an inconclusive call do not appear. Activity calls are given as the source filed them. Rule for the calls: active = hit-call score of the fitted dose curve at least 0.9, where 1 is the maximum; inconclusive = response in the unintended direction; inactive = score below 0.9.
Possible outcomes: 1.0 (active), 0.0 (inactive)

>>> df
                                   compound  label_value
0  FC(F)C(F)(F)OCC(Cn1cncn1)c1ccc(Cl)cc1Cl (stereo unspecified)          1.0
1                 CSc1nnc(C(C)(C)C)c(=O)n1N          0.0
2      CCOP(=S)(OCC)Oc1ccc([N+](=O)[O-])cc1          0.0
3  CCC(CC)Nc1c([N+](=O)[O-])cc(C)c(C)c1[N+](=O)[O-]          0.0
4  CC(Oc1cccc(Cl)c1)C(=O)O (stereo unspecified)          0.0
5       COc1cc(OC)nc(Sc2cccc(Cl)c2C(=O)O)n1          0.0
